# Tested on: Plasmodium berghei
# test-protocol: Screen against P. berghei liver stage (PbLuc), transformed with Luciferase, at 10uM
# Assay type: functional, HepG2
# setup-conditions: tested at 10 uM
Among all 69,000 compounds or so, about 8,600 (12%) showed an effect of 50% or more. The sample holds strong results, similar compounds and a random draw of the others, so the mix is not that of the screen.
Binary classification by INHIBITION, with 40% as an inclusive lower bound for satisfied; all other cases are not satisfied.

[in] I'd appreciate it if you could say whether COCCCN1CCCC(c2nccn2CC2CCC2)C1 (centres undefined) has INHIBITION at least equal to 40%.
[out] satisfied

[in] I'd appreciate it if you could say whether CCC(C)N(Cc1sccc1C)C(=O)c1ccc2cccnc2n1 (centres undefined) has INHIBITION at least equal to 40%.
[out] not satisfied

[in] I'd appreciate it if you could say whether O=C(CSc1nccc(-c2ccc3c(c2)OCO3)n1)N1CCOCC1 has INHIBITION at least equal to 40%.
[out] not satisfied

[in] I'd appreciate it if you could say whether CCc1nc2ccccc2c(=O)n1CC1(O)CCN(C(=O)C(C)C)CC1 has INHIBITION at least equal to 40%.
[out] not satisfied

[in] I'd appreciate it if you could say whether Fc1cccc(-n2ccc(CN3CCCC3Cn3cncn3)n2)c1 (centres undefined) has INHIBITION at least equal to 40%.
[out] not satisfied

[in] I'd appreciate it if you could say whether CC1CCCCN1c1nc2c(c(=O)[nH]1)CCN(Cc1ccccn1)C2 (centres undefined) has INHIBITION at least equal to 40%.
[out] not satisfied

[in] I'd appreciate it if you could say whether Cc1cccc(CN2CCc3c(nc(N4CCCCC4C)[nH]c3=O)C2)n1 (centres undefined) has INHIBITION at least equal to 40%.
[out] not satisfied

[in] I'd appreciate it if you could say whether OC1CCN(Cc2ccnc(-c3cccnc3)n2)CC1 has INHIBITION at least equal to 40%.
[out] satisfied

[in] I'd appreciate it if you could say whether CC(C)NC(=O)C1CCc2nnc(C(C)(C)C)n21 (centres undefined) has INHIBITION at least equal to 40%.
[out] not satisfied

[in] I'd appreciate it if you could say whether COC(=O)COn1c(SC(C)C)nc2ccccc2c1=O has INHIBITION at least equal to 40%.
[out] not satisfied

[in] I'd appreciate it if you could say whether COC(=O)COn1c(SC)nc2ccccc2c1=O has INHIBITION at least equal to 40%.
[out] satisfied

[in] I'd appreciate it if you could say whether CCN1CCN(Cc2ccnc(-c3cccnc3)n2)CC1 has INHIBITION at least equal to 40%.
[out] satisfied

[in] I'd appreciate it if you could say whether CC1CCCN(Cc2ccnc(-c3cccnc3)n2)C1 (centres undefined) has INHIBITION at least equal to 40%.
[out] not satisfied

[in] I'd appreciate it if you could say whether COC(=O)COn1c(SCC(=O)OC)nc2ccccc2c1=O has INHIBITION at least equal to 40%.
[out] not satisfied

[in] I'd appreciate it if you could say whether NC(=O)c1cc(C2CCCN(CCOc3ccc(F)cc3)C2)n[nH]1 (centres undefined) has INHIBITION at least equal to 40%.
[out] not satisfied

[in] I'd appreciate it if you could say whether c1cncc(-c2nccc(CN3CCCC3)n2)c1 has INHIBITION at least equal to 40%.
[out] satisfied

[in] I'd appreciate it if you could say whether CC1CCCCN1c1nc2c(c(=O)[nH]1)CCN(Cc1ccccc1F)C2 (centres undefined) has INHIBITION at least equal to 40%.
[out] satisfied

[in] I'd appreciate it if you could say whether CC(C)NC(=O)N1CCN(c2ccc(Cl)nn2)C(=O)C1 has INHIBITION at least equal to 40%.
[out] not satisfied

[in] I'd appreciate it if you could say whether O=C(N[C@@H]1CCC[C@@H](n2ccnc2)[C@@H]1O)c1ccc2c(c1)CCCC2 has INHIBITION at least equal to 40%.
[out] not satisfied

Where do the numbers come from? From ChEMBL document CHEMBL4513216.
